Please consider the recorded IC50 for calmodulin insensitive cyclic GMP phosphodiesterase (Sus scrofa, UniProt A0A287B475) in what follows.
Answers are plain numbers, in µM.

Example compounds with recorded IC50:
smiles-text | measured-target | measurement-kind | quantitative-readout
CCCCOc1ccccc1-c1nc2[nH]c(=O)[nH]c2c(=O)[nH]1 | calmodulin insensitive cyclic GMP phosphodiesterase (Sus scrofa, UniProt A0A287B475) | IC50 | 6.79
CCOc1ccccc1-c1nc2[nH]c(=O)[nH]c2c(=O)[nH]1 | calmodulin insensitive cyclic GMP phosphodiesterase (Sus scrofa, UniProt A0A287B475) | IC50 | 5.26
CCCCOc1ccccc1-c1nc2nc[nH]c2c(=O)[nH]1 | calmodulin insensitive cyclic GMP phosphodiesterase (Sus scrofa, UniProt A0A287B475) | IC50 | 5.04
CCOc1ccccc1-c1nc2nc[nH]c2c(=O)[nH]1 | calmodulin insensitive cyclic GMP phosphodiesterase (Sus scrofa, UniProt A0A287B475) | IC50 | 4.49
CC(C)COc1ccccc1-c1nc2nc[nH]c2c(=O)[nH]1 | calmodulin insensitive cyclic GMP phosphodiesterase (Sus scrofa, UniProt A0A287B475) | IC50 | 1.74

# get_value(readout='IC50', item= "CC(C)COc1ccccc1-c1nc2[nH]c(=O)[nH]c2c(=O)[nH]1" )
3.64
